- System: OVCAR-5 ovarian
- assayOverview: NCI-60 one-dose screen, 48 h (100 = growth as untreated, 0 = no growth, -100 = all killed)
- measurementParameters: 10 µM
About 83,000 compounds went through this panel and 20% of them were active in at least one assay; those are over-represented in the sample as a whole.
Below, each entry is listed alongside its reported growth.
metric: growth (%)

lineNotation: O=c1ccc2nc(-c3ccccc3)nn(-c3ccccc3)c-2c1
number: 102

lineNotation: CCCCCCCC/C=C/CCCCCCCCC1=NCCN1CCO
number: 95.2

lineNotation: COCCOC(=O)NC(=O)Nc1ccc(/C(=N/O)c2ccc(Cl)cc2)cc1
number: 47.1

lineNotation: CC(C)OCc1cc(CN2CCN(c3cccc(Cl)c3)CC2)c(O)c2ncccc12
number: 38.3

lineNotation: CCc1nn2c(-c3cc(OC)c(OC)c(OC)c3)c(-c3cc(OC)c(OC)c(OC)c3)nc2s1
number: 90

lineNotation: COc1cc(Cn2c(-c3ccccc3)cc3c2-c2oncc2CC3)cc(OC)c1
number: 42.6

lineNotation: N#Cc1c2c([nH]c(=O)c1C(N)=O)CCCCC2
number: 97.2

lineNotation: c1ccc(COCC[P+](c2ccccc2)(c2ccccc2)c2ccccc2)cc1
number: 24.2

lineNotation: CCOC(=O)c1ccc(NC(=O)Nc2nncs2)cc1
number: 42.4

lineNotation: COc1cc(-c2nc3ccccc3[nH]2)ccc1OCC(=O)N=Nc1c(O)[nH]c2ccccc12
number: 109

lineNotation: Cc1ccc([P+](Cc2ccccc2)(c2ccccc2)c2ccccc2)cc1
number: 31.7

----------
Below, each entry is listed alongside its reported growth.
- Tested on: HT29 colon
- assayOverview: NCI-60 one-dose screen, 48 h (100 = growth as untreated, 0 = no growth, -100 = all killed)
- measurementParameters: 10 µM
Compounds without any hit were thinned out: in the full panel of roughly 83,000, 20% have a hit.
metric: growth (%)

molecule: N#CN1CC[C@H](C(=O)Nc2ncc(-c3ccccc3)s2)C1
metric: growth
number: -35.6
--
molecule: CCCCCCCCCCCCCCCCCBr
metric: growth
number: 97.5
--
molecule: CNCCCNCCCN1C(=O)c2ccc3c4c(ccc(c24)C1=O)C(=O)N(CCCNCc1ccccc1OC)C3=O
metric: growth
number: -23.4
--
molecule: O=c1oc2c3ccc4cnccc4c3[nH]c2c2ccccc12
metric: growth
number: -19.7
--
molecule: CC(=O)OCC(COC(C)=O)(COC(C)=O)COC(C)=O
metric: growth
number: 102
--
molecule: Cc1ccccc1[P+](Cc1ccccc1)(c1ccccc1)c1ccccc1
metric: growth
number: 7.47
--
molecule: O=CNc1c(Cl)cc2c(c1Cl)Cc1cc([N+](=O)[O-])ccc1-2
metric: growth
number: 58.4
--
molecule: COc1ccc(C2CC(c3ccc(-c4ccccc4)cc3)=NN2c2ccc(S(N)(=O)=O)cc2)cc1 (configuration not stated)
metric: growth
number: 48.6
--
molecule: CC(C)/C(=N/O)c1ccccc1
metric: growth
number: 97.4
--
molecule: Cc1cc(C)c(C(=O)OC(C)CNC2CCCCC2)c(C)c1 (configuration not stated)
metric: growth
number: 90.5
--
molecule: CC(C)=C1CCC(C)C/C1=N\N=C(N)N (configuration not stated)
metric: growth
number: 102
--
molecule: CCCCNC(=O)Oc1ccc(/C(=C(\C)c2ccc(OC)cc2)c2ccc(OCCN3CCCCC3)cc2)cc1
metric: growth
number: 7.84
--
molecule: C[C@]12CC[C@H]3[C@@H](CCC4=CC(=O)CC[C@@]43C)[C@@H]1CC[C@@H]2c1csc(N)n1
metric: growth
number: 56.6
--
molecule: COc1ccc(C(=O)/C=C/c2cc(-c3ccc(OC)c(OC)c3)n[nH]2)cc1OC
metric: growth
number: -61.1
--
molecule: COC(=O)c1cnc2c(c1)Oc1ccccc1-c1ccnn1-2
metric: growth
number: 90.3
--
molecule: CCCCCc1cc[n+](CC(=O)c2ccc(Cl)cc2)cc1
metric: growth
number: 64.7
--
molecule: CS(=O)(=O)Nc1ccc([N+](=O)[O-])cc1Oc1ccccc1
metric: growth
number: 99.9
--
molecule: COc1cc(-c2nc3ccc(C)cc3[nH]2)ccc1OCC(=O)N=Nc1c(O)[nH]c2ccccc12
metric: growth
number: -77.1
--
molecule: NC(N)=NS(=O)(=O)c1ccc(Nc2ccc3nnc(-c4ccncc4)n3n2)cc1
metric: growth
number: 104
--
molecule: C#C[C@]1(O)CC[C@H]2[C@@H]3CC[C@H]4CC(F)(F)CC[C@]4(C)[C@H]3CC[C@@]21C
metric: growth
number: 64.1
--
molecule: COc1ccc(-c2csc(NC(=O)CO[N+](=O)[O-])n2)cc1
metric: growth
number: 105
--
molecule: COC(=O)c1c(C)nc(Nc2nc3ccccc3s2)nc1-c1ccc(Cl)cc1Cl
metric: growth
number: 114

The values you see were collected from PubChem BioAssay (NCI).
